Assay: Inhibition of [20-3H]phorbol-12,13-dibutyrate (PDBU) binding to protein kinase-C (PKC alpha, beta and gamma) from mouse brain
parameter measured: log10(Ki) (log10 of the value in µM)
Field: value | Transform: log10 | Quantity: Ki | Unit: µM

Solved cases (5 shown):
structure: CCCCCCCCCCCC[C@H]1C(=O)O[C@@H](CO)[C@@H]1OC(C)=O
log10(Ki): 0.04

structure: CCCCCCCCCCCCCC(=O)O[C@@H]1CC(=O)O[C@H]1CO
log10(Ki): 0.40

structure: CCCCCCCCCCCCCC(=O)O[C@H]1[C@H](CO)OC(=O)[C@@H]1CCCCCCCCCCCC
log10(Ki): 0.46

structure: CCCCCCCCCCCCCC(=O)O[C@H]1CC(=O)O[C@@H]1CO
log10(Ki): 0.72

structure: CCCCCCCCCCCCCC(=O)OC[C@H](CO)OC(C)=O
log10(Ki): -0.30

Fill in the blank: the reported log10(Ki) of "CCCCCCCCCCCCCC[C@H]1C(=O)O[C@@H](CO)[C@@H]1OC(C)=O" is ____.
-0.22
